- Tested on: MILI (PIWIL2) piRISC loaded with L1MC piRNA (26 nt);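 note: 1 nM active piRISC with 0.1 nM target library at 33 °C single turnover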
- assay: pre-steady-state target cleavage rate (min^-1); guide: L1MC piRNA 5'p-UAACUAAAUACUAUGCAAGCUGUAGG; higher = faster piRNA-guided slicing of the target
- measurement context: auxiliary factor: none (no GTSF1)
recorded metric: pre-steady-state target cleavage rate
Note: the reply should be a number with no unit written.

Need pre-steady-state target cleavage rate, item UCCUGGAUGAUGCUUGCAUAGUAUUUAGUUA
0.00923

Now try UCCUGGAUCAGGUUGCAUAGUAAUUAGUUA .
0.00739

Now try UCCUGGAUGUGCUUGGAUAGUAAUUAGUUA .
0.00472

Now try UCCUGCUACAGCUUGGCAUAGUAUUUAGUUA .
0.00405

Now try UCCUCCAACAGCUAGCAUAGUAUUUAGUUA .
0.00537

----------
# pre-steady-state target cleavage rate per record follows
- Tested on: EfPiwi piRISC loaded with L1MC piRNA (26 nt)
- assay: pre-steady-state target cleavage rate (min^-1); auxiliary factor: 500 nM Ephydatia muelleri Gtsf1; guide: L1MC piRNA 5'p-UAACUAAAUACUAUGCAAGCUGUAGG; higher = faster piRNA-guided slicing of the target
Note: the reply should be a number with no unit written.

INSERT INTO assay_data (sequence_record, endpoint_value) VALUES
  ('UCCUCCUACAGCUUGCAAAGUAUUUAGAUA', 0.00419),
  ('UCCUGGAUCAGCUUGCAUAGUAUUUUCAAA', 0.00307),
  ('UCCUGGAUGAGCUAGCAUAGUAUUUAGAAA', 0.00297),
  ('UCCUGGAUCAGCUUGCAUAGUAUUUGAGUUA', 0.00696),
  ('UCCUGGAUCAGGUUGCAUAGUAUUUAGUUA', 0.0232);

Need pre-steady-state target cleavage rate, item UCCUGGAACAGGUUGCAUAGUAUUUUGUUA
0.00366

Now try UCCUGCUACAGCUUGCAUAGUAUUUAGUAA .
0.00553

Now try UCCUGCUUCAGCUUGCAUAGUAUAUAGUUA .
0.00887

Now try UCCUGGAUGAGCUUGCAUAGUAUUUAGAUUA .
0.00336

Now try UCCUGGAUGAGCUUGCAUAGUAUUUAGUAA .
0.00367

Now try UCCUGGAUGUCCUGCAUAGUAUUUAGUUA .
0.00358

Now try UCCUGGAUCAGCUUGCAUAGGAUUUAGUUA .
0.0025

Now try UCCUGGAUCAGGUUGCAUAGUUUUUAGUUA .
0.00481

Now try UCCUGCUACAGCUUGGAUAGUAUUUAGAUA .
0.00339

Now try UCCUCCUACAGCUUCCAUUGUAUUUAGUUA .
0.00393

Now try UCCUCUACAGCUUGCAUAGUAUUUAGUUA .
0.183

Now try UCCUGGAACAGCUUGCAUUGUAUUUAGAUA .
0.00313

Now try UCCUGGUACUGCUUGCAUAGUAUUUAGUAA .
0.00428

Now try UCCUGGAUGAGCUUGUAUAGUAUUUAGUUA .
0.0538

----------
- Test system: MILI (PIWIL2) piRISC loaded with piRNA #1 (26 nt);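 note: 1 nM active piRISC with 0.1 nM target library at 33 °C single turnover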
- assay: pre-steady-state target cleavage rate (min^-1); guide: piRNA #1 5'p-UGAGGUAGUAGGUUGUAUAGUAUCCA; higher = faster piRNA-guided slicing of the target
- measurement context: auxiliary factor: 500 nM mouse GTSF1
recorded metric: pre-steady-state target cleavage rate
Note: the reply should be a number with no unit written.

Please review the entries below; each comes with its answer.
INSERT INTO results (sequence_record, recorded_metric, endpoint_value) VALUES
  ('GGAGACCUAACUUUUCAACCUACUACCUCA', 'pre-steady-state target cleavage rate', 0.0456),
  ('GGAGACCUAACUUUACAACCUACUAGCUCA', 'pre-steady-state target cleavage rate', 0.0363),
  ('GGAGAGGAUACUAUACUACCUACUACCACA', 'pre-steady-state target cleavage rate', 0.171),
  ('GGAGACCUAUGAAUACAUCCUACUACCACA', 'pre-steady-state target cleavage rate', 0.0133),
  ('GGAGACCUAUGAUUACAACCUACUACCAUCA', 'pre-steady-state target cleavage rate', 0.00378);

Now let's try a different one.
Need pre-steady-state target cleavage rate, item GGAGACCUUACUAUACAACCUACGUACCUCA
0.0918

----------
# pre-steady-state target cleavage rate per record follows
- Tested on: MILI (PIWIL2) piRISC loaded with L1MC piRNA (26 nt);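 note: 1 nM active piRISC with 0.1 nM target library at 33 °C single turnover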
- assay: pre-steady-state target cleavage rate (min^-1); guide: L1MC piRNA 5'p-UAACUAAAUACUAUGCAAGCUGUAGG; higher = faster piRNA-guided slicing of the target
- measurement context: auxiliary factor: 500 nM mouse GTSF1

INSERT INTO assay_data (sequence_record, recorded_metric, endpoint_value) VALUES
  ('UCCUGCUACAGCUUGCAAGUAUUUAGUUA', 'pre-steady-state target cleavage rate', 0.138),
  ('UCCUGGAUCAGCUUGCAUUGUAUUUACAAA', 'pre-steady-state target cleavage rate', 0.0117),
  ('UCCUGCUACAGCUUGCAAAGUAUUUAGUUA', 'pre-steady-state target cleavage rate', 0.13),
  ('UCCUCCUACAGCUUGGAUAGUAUUUACAAA', 'pre-steady-state target cleavage rate', 0.021);

Need pre-steady-state target cleavage rate, item UCCUGCUACAGCUUGCUUACUAUUUAGUUA
0.114

Now try UCCUGGAUGUCGAAGCAUAGUAGUUUAGUUA .
0.00907

Now try UCCUGGAACACCUUGCAUAGAAUUUAGUUA .
0.0907

Now try UCCUGGUUCAGCUAGCAUAGUAUUUAGUUA .
0.239

Now try UCCUGGAACAGCUUGCAUAGUAUUUAGGUUA .
0.23

Now try UCCUGGAUGAGCUUGAAUAGUAUUUAGUUA .
0.216

Now try UCCUCCUAGAGCUUGCAUAGUAUUUACUUA .
0.146

----------
- Test system: EfPiwi piRISC loaded with piRNA #1 (26 nt)
- assay: pre-steady-state target cleavage rate (min^-1); auxiliary factor: 500 nM Ephydatia muelleri Gtsf1; guide: piRNA #1 5'p-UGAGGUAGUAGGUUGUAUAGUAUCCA; higher = faster piRNA-guided slicing of the target
recorded metric: pre-steady-state target cleavage rate
Note: the reply should be a number with no unit written.

Please review the entries below; each comes with its answer.
INSERT INTO results (sequence_record, target, endpoint_value) VALUES
  ('GGAGUGGAUACUAUACAACCAACUACGUCA', 'EfPiwi piRISC loaded with piRNA #1 (26 nt)', 0.00367),
  ('GGAGUGGUUACUAUACAACCUACUACCACA', 'EfPiwi piRISC loaded with piRNA #1 (26 nt)', 0.00384),
  ('GGAGAGGAUACUAUACAAGCUACUACCUGA', 'EfPiwi piRISC loaded with piRNA #1 (26 nt)', 0.00442),
  ('GGAGUCGAUACUAUACAACGUACUACCUCA', 'EfPiwi piRISC loaded with piRNA #1 (26 nt)', 0.00501),
  ('GGAGUGGAUACUAUACAAGCUAGUACCUCA', 'EfPiwi piRISC loaded with piRNA #1 (26 nt)', 0.00287);

Need pre-steady-state target cleavage rate, item GGAGACGAUACUAUACAACCUACAUCCUCA
0.00353

Now try GGAGACGAUACUAUAGAACCUACUACCUGA .
0.00292

Now try GGAGUGGAAACUAUACAACCUACUACCUGA .
0.00283

Now try GGAGUGGUUACUAUACAACCUAGUACCUCA .
0.00359

Now try GGAGAGGAUACUAUACAACCUACUUCCUCA .
0.00514

Now try GGAGACCUAUCUAUACAACCUGCUACCUCA .
0.00697

Now try GGAGAGGAUACUAUACAACUACUACCUCA .
0.00869

Now try GGAGAGGAUACUAUACAACCUACUACACUCA .
0.00522

----------
- Test system: EfPiwi piRISC loaded with L1MC piRNA (26 nt)
- assay: pre-steady-state target cleavage rate (min^-1); auxiliary factor: 500 nM Ephydatia muelleri Gtsf1; guide: L1MC piRNA 5'p-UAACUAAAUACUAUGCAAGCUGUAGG; MIWI and MILI are mouse PIWI proteins and EfPiwi is from a freshwater sponge; tags in brackets are library labels; higher = faster piRNA-guided slicing of the target
# pre-steady-state target cleavage rate per record follows
Note: the reply should be a number with no unit written.

Need pre-steady-state target cleavage rate, item UCCUGCUACAGCUUGCAUAGUAUUUUGUUA
0.00916

Now try UCCUGCUACAGCUCGCAUAGUAUUUAGUUA .
0.0122

Now try UCCUCCUACAGCAUGCAUAGUAUUUUGUUA .
0.00297

Now try UCCUGGAUGUCCUUCGCAUAGUAUUUAGUUA .
0.01

Now try UCCUCCUACAGCUUGCUUAGUAUUUUCAAA .
0.00322

Now try UCCUCCUACAGCUUGCAUAGUAUAAUGUAA .
0.00413

Now try UCCUGGAACAGCUUGCAUAGUAUUUUCAUA .
0.00388
